These entries and their values trace back to patent US20260258115A1.

target: T1, RSV postfusion F (postF), subtype A (respiratory syncytial virus subtype A, UniProt P03420 26-513)
T1 construct: also called Postfusion subtype A; F deltaFP
procedure-details: BLI, IgG
assay-metric: Kd (nM)
Lab book: enter the figure in nM, no units written.

{"binder": "ADI-14382 (antibody, V domains shown, full-length IgG; also called Ab 50) VH: EVQLLESGGGVVQPGRSLRLSCAASGFTFSAYGFHWVRQAPGKGLEWVAVIWFDGNNKYYADSMKGRFIISRDNSKNTLYLQMNSLRAEDTAVYYCARDPKETGEFDYWGQGTLVTVSS VL: QSALTQPASVSGSPGQSITISCTGTISDVGRYNYVSWYQQHPGKAPKLMIYDVTNRPSGVSNRFSGSKSGNTASLTISGLQAEDEAVYYCCSYTISSTYVFGTGTKLTVL", "reported-result": 0.846}
{"binder": "ADI-14386 (antibody, V domains shown, full-length IgG; also called Ab 54) VH: EVQLVESGGGLVQPGGSLRLSCAASRFTFSSYAMSWVRQAPGKGLEWVSGIGASGGTTYYADSVKGRFTISRDNSKNTVYLQMNSLRAEDTAVYYCARCEYYYGSGSAGYYFDYWGQGTLVTVSS VL: SYELTQPPSVSVSPGQTASITCSGDKLGSKFAFWYQQKPGQSPVLVIFQDVKRPSGIPERFSGSNSGNTATLTISGTQAMDEADYYCQAWDSGTAVFGGGTKVTVL", "reported-result": 1.32}

Now, please, on to the next binder.
Problem: Please look up its Kd: ADI-14372 (antibody, V domains shown, full-length IgG; also called Ab 40) VH: QVQLLESGGGLVQPGGSLRLSCAASGFTFSNYAMGWVRQAPGQGLEWVSRISATGGSTHYADSVRGRFTISRDNSKNTLYLQMNSLKAEDTAVYYCAKDRGYSRNLTPDYWGQGTLVTVSS VL: ETTLTQSPSSLSASVGDRVTITCRASQGITNDLGWYQKKPGKAPKLLIYVASSLQSGVPSRFSGSGSGTDFTLTISSLQPEDFATYYCLQDYNYPITFGQGTKVDIK
Result: 0.659
